target: Homeobox protein Hox-A13 (Mus musculus) (UniProt Q62424); assay: disruptors of Hoxa13 oligonucleotide interaction – biochemical, fluorescence polarization, labeled oligonucleotide, primary screen (AID 1185); details: Hoxa13:DNA binding, 15 min, higher = more signal, called active from +8 up or from −8 down
Sequence (Q62424 whole entry, looked up): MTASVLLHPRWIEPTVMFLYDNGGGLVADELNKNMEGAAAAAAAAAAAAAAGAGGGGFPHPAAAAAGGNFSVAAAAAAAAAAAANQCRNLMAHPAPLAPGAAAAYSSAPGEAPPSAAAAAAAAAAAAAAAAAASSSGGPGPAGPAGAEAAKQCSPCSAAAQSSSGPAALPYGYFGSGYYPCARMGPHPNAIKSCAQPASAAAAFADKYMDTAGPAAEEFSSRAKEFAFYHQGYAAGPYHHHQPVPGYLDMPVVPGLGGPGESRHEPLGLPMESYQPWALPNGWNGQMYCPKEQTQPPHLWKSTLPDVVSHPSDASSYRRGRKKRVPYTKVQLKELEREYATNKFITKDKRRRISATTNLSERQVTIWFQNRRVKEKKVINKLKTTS
Mark FALSE for z-score values under -2, and TRUE for everything at or above.

Prompt line: Threshold query (z-score >= -2) on CN(C)C(=O)[C@]1(Cc2ccccc2N=[N+]=[N-])N=C(c2ccc(OCCCO)cc2)O[C@@H]1c1ccccc1CN=[N+]=[N-]
Response line: FALSE

Prompt line: Threshold query (z-score >= -2) on COC(=O)[C@@]1(Cc2ccc(F)cc2)[C@H]2c3cc(C(=O)N(C)C)n(CCSCCO)c3C[C@H]2CN1C(=O)c1ccccc1
Response line: FALSE

Prompt line: Threshold query (z-score >= -2) on NCCCCCCNC(=O)[C@H]1C[C@H]2C(=O)N3CCC[C@H]3C(=O)N2[C@H]1c1ccc(O)cc1
Response line: FALSE

Prompt line: Threshold query (z-score >= -2) on COCCOC(=O)N1C(=O)[C@@]2(c3cc(C#Cc4ccc(OC)cc4)ccc31)[C@H](C(=O)N1CCc3cc(OC)c(OC)cc3C1)[C@H]1C(=O)O[C@H](c3ccccc3)[C@H](c3ccccc3)N1[C@@H]2c1ccc(OCCO)cc1
Response line: TRUE

Prompt line: Threshold query (z-score >= -2) on COC(=O)[C@@]1(Cc2ccccc2N=[N+]=[N-])N=C(c2ccc(OCCCO)cc2)O[C@H]1c1ccccc1
Response line: FALSE

Prompt line: Threshold query (z-score >= -2) on O=C1OCCC=C[C@H]2OC34C=CCN(Cn5nnc6ccccc65)C(=O)[C@H]3N(CCCCCO)C(=O)[C@@H]4C12 (some centres undefined)
Response line: FALSE

Prompt line: Threshold query (z-score >= -2) on [N-]=[N+]=Nc1ccccc1[C@@H]1OC(c2ccc(OCCCO)cc2)=N[C@]1(CCS(=O)(=O)c1ccccc1)C(=O)NCc1ccccc1
Response line: TRUE

Prompt line: Threshold query (z-score >= -2) on COC(=O)[C@@]1(Cc2ccccc2)[C@H]2c3cc(C(=O)N4CCCC4)n(Cc4ccc(OC(F)(F)F)cc4)c3C[C@H]2CN1C(=O)c1ccccc1
Response line: FALSE

Prompt line: Threshold query (z-score >= -2) on O=C1OCC=C[C@H]2OC34C=CCN(CCN5CCOCC5)C(=O)[C@H]3N(CCCCCO)C(=O)[C@@H]4[C@@H]12 (some centres undefined)
Response line: FALSE

Prompt line: Threshold query (z-score >= -2) on COc1ccc([Si](C)(C)[C@@H]2[C@@H](CC(=O)N(CCO)Cc3ccccc3)O[C@]3(C(=O)N(Cc4ccc(N5CCOC5=O)cc4)c4ccccc43)[C@H]2C)cc1
Response line: TRUE

* * *

assay: probe aLefty2 binding to arrayed compounds – biochemical, biotinylated probe, 635/667 nm fluorescence, primary screen (AID 1094); conditions: small-molecule microarray, higher = more signal;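 note: score merges spot fluorescence near 667 nm with spot signal-to-noise ratio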
Mark n for composite z-score values under 0.7, and y for everything at or above.

[
  {
    "record-smiles": "O=C1O[C@H](c2ccccc2)[C@H](c2ccccc2)N2[C@H]1[C@@H](C(=O)N1CCCCCCC1)[C@]1(C(=O)Nc3ccccc31)[C@H]2c1ccc(O)cc1",
    "cat": "y"
  },
  {
    "record-smiles": "CCCN1C(=O)[C@@]2(Cc3ccccc3)N=C(c3ccc(OCCCO)cc3)O[C@H]2c2ccccc21",
    "cat": "n"
  },
  {
    "record-smiles": "NC(=O)NCC#Cc1ccc2c(c1)[C@]1(C(=O)N2)[C@H](c2ccc(OCCO)cc2)N2[C@H](c3ccccc3)[C@H](c3ccccc3)OC(=O)[C@H]2[C@@H]1C(=O)N1CCCCCCC1",
    "cat": "y"
  },
  {
    "record-smiles": "COCC1=C([C@H](O)CCc2ccccc2)[C@H](CO)[C@@H]2C(=O)N(C)C(=O)[C@@H]2C1",
    "cat": "n"
  },
  {
    "record-smiles": "OCc1ccc(-c2cc[n+](Cc3cccc(OC(F)(F)F)c3)cc2)cc1",
    "cat": "n"
  }
]

Prompt line: Threshold query (composite z-score >= 0.7) on CN(C)CCCCNC(=O)[C@H]1C[C@H]2C(=O)N[C@@H](CCCC[N+](C)(C)C)C(=O)N2[C@H]1c1cccc(OCCO)c1
Response line: n

* * *

test: probe aLefty2 binding to arrayed compounds – biochemical, biotinylated probe, 635/667 nm fluorescence, primary screen (AID 1094); conditions: small-molecule microarray, higher = more signal;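 note: score merges spot fluorescence near 667 nm with spot signal-to-noise ratio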
Mark f for composite z-score values under -0.06, and t for everything at or above.

Solved cases below.
[
  {
    "molecule": "[N-]=[N+]=Nc1ccccc1[C@@H]1OC(c2ccc(OCCCO)cc2)=N[C@]1(CCS(=O)(=O)c1ccccc1)C(=O)NCc1ccccc1",
    "cat": "t"
  },
  {
    "molecule": "C=C(CCCC)/C(=C/C[C@H](OC(=O)c1ccncc1)c1ccc(CO)o1)c1cc(C(=O)OC)ccc1OC",
    "cat": "t"
  },
  {
    "molecule": "CCCc1cc2c(n1Cc1ccc(OC)cc1)C(C)C1CN(C(=O)c3ccccc3)C(C)(C(=O)OC)C21 (stereo not given)",
    "cat": "t"
  }
]

Prompt line: Threshold query (composite z-score >= -0.06) on Cc1ccc(S[C@]2(C(=O)NCCN3CCOCC3)CC(=O)N(C3Cc4ccccc4C3)[C@@H]2c2ccc(CO)cc2)cc1
Response line: f

Prompt line: Threshold query (composite z-score >= -0.06) on O=C1NC(=O)C2C1C=CC(C(O)c1ccc(-c3ccccc3)s1)N2Nc1ccccn1 (stereo not given)
Response line: t

Prompt line: Threshold query (composite z-score >= -0.06) on C[C@]12C(=O)N(CCCO)[C@@H]3C(=O)N(c4ccc(Cl)cc4)CC=CC31O[C@@H]1/C=C\CCCOC(=O)C12 (stereo not given in full)
Response line: f

Prompt line: Threshold query (composite z-score >= -0.06) on CCOC(=O)C1=CCC(c2cccc(Cl)c2)O1 (stereo not given)
Response line: f

Prompt line: Threshold query (composite z-score >= -0.06) on C[C@H]1ON(c2ccccc2)[C@@H](c2ccccc2)[C@@H]1C(=O)N1C(=O)OC[C@@H]1c1ccccc1
Response line: f

Prompt line: Threshold query (composite z-score >= -0.06) on C=CCC(OC(C)=O)[C@@H]1[C@@H](N(Cc2cccc3ccccc23)C(=O)Cc2ccc(F)cc2)c2cc(OCCCO)ccc2N1C(=O)Cc1ccc(OC)cc1 (stereo not given in full)
Response line: t

Prompt line: Threshold query (composite z-score >= -0.06) on Cc1cc(C)c(C(O)C2C=CC3C(=O)N(c4ccccc4)C(=O)C3N2Nc2ccccc2)c(C)c1 (stereo not given)
Response line: t

Prompt line: Threshold query (composite z-score >= -0.06) on NC(=O)NCC#Cc1ccc2c(c1)[C@]1(C(=O)N2)[C@H](c2ccc(O)cc2)N2[C@H](c3ccccc3)[C@H](c3ccccc3)OC(=O)[C@H]2[C@@H]1C(N)=O
Response line: f

Prompt line: Threshold query (composite z-score >= -0.06) on CN(C)CCCC[C@@H]1NC(=O)[C@H]2C[C@@H](C(=O)NCCCCCCNC(=O)CS)[C@@H](c3ccc(O)cc3)N2C1=O
Response line: f

Prompt line: Threshold query (composite z-score >= -0.06) on O=C1O[C@@H](c2ccccc2)[C@@H](c2ccccc2)N2[C@@H](c3ccc(O)cc3)[C@]3(C(=O)Nc4ccc(C#CC5=CCCCC5)cc43)[C@@H](C(=O)Nc3nc4ccccc4s3)[C@H]12
Response line: t

Prompt line: Threshold query (composite z-score >= -0.06) on C=CCN1C(=O)[C@@]2(O[C@@H](CCO)[C@H]([Si](C)(C)c3ccc(OC)cc3)[C@H]2C)c2cc(NC(=O)[C@H](C)O)ccc21
Response line: f

* * *

test: small molecules captured by biotinylated probe aFST – biochemical, small-molecule microarray, fluorescence 635/667, stem cell growth factor project, primary screen (AID 1086); settings: higher = more signal;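 note: score merges 667 nm fluorescence with signal-to-noise of each printed compound spot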
quantity-kind: composite z-score

Below, 4 molecules whose answers are already recorded.
[
  {
    "record-smiles": "COCCOC(=O)N1C(=O)[C@@]2(c3cc(C#CCCO)ccc31)[C@H](C(=O)NC[C@H](O)c1ccccc1)[C@H]1C(=O)O[C@H](c3ccccc3)[C@H](c3ccccc3)N1[C@@H]2c1ccccc1OCCO",
    "composite z-score": 0.62
  },
  {
    "record-smiles": "Cc1ccc(S[C@]2(C(=O)O)CC(=O)N(Cc3ccccc3C(F)(F)F)[C@@H]2c2ccc(CO)cc2)cc1",
    "composite z-score": -0.49
  },
  {
    "record-smiles": "COc1ccc([Si](C)(C)[C@@H]2[C@@H](CCO)O[C@]3(C(=O)N(Cc4ccccc4)c4ccc(N5C(=O)COc6ccccc65)cc43)[C@H]2C)cc1",
    "composite z-score": 0.17
  },
  {
    "record-smiles": "COC(=O)C(CC#Cc1ccc2c(c1)[C@]1(C(=O)N2)[C@H](C(=O)N2CCc3cc(OC)c(OC)cc3C2)[C@H]2C(=O)O[C@H](c3ccccc3)[C@H](c3ccccc3)N2[C@@H]1c1ccc(O)cc1)C(=O)OC",
    "composite z-score": 0.288
  }
]

# context switch: different molecule, same composite z-score
Prompt line: Assign composite z-score to the following record: COCCOC(=O)N1C(=O)[C@@]2(c3cc(C#CC4(O)CCCCCC4)ccc31)[C@H](C(=O)N1CCc3cc(OC)c(OC)cc3C1)[C@H]1C(=O)O[C@H](c3ccccc3)[C@H](c3ccccc3)N1[C@@H]2c1ccccc1OCCO
Response line: 1.08
